test: Antiinflammatory activity in human neutrophils assessed as inhibition of fMLP/CB-induced elastase release using MeO-Suc-Ala-Ala-Pro-Val-p-nitroanilide as elastase substrate preincubated for 5 mins followed by fMLP/CB-induction; assay type: functional, cell-based; settings: Neutrophil
REPORTED PROPERTY: IC50 (µM)
Write the number in µM without appending the unit.

Past entries and their recorded results:
> print(dat)
                            compound.string  unit  observed.measurement
1     COc1cc2c(cc1O)CCc1cc(O)c(OC)c(OC)c1-2    µM                   5.7
2  COc1cc(O)c(Cc2ccc(O)cc2)c2c1-c1ccc(O)cc1CC2    µM                     2
3  COc1cc(O)c(-c2c(O)c(Cc3ccc(O)cc3)c3c(c2OC)-c2ccc(O)cc2CC3)c2c1-c1ccc(O)cc1CC2    µM                   0.4
4            COc1cc2ccc3cc(O)ccc3c2c(OC)c1O    µM                   4.9
5  COc1c(O)cc2ccc3c(Cc4ccc(O)cc4)c(O)ccc3c2c1OC    µM                   1.3

Next up:
**Query** Give the measured IC50 of COc1cc(O)c(Cc2ccc(O)cc2)c2ccc3cc(O)ccc3c12 .
**Result** 0.9

###

test: Antiinflammatory activity in human neutrophils assessed as inhibition of fMLP/CB-induced elastase release using MeO-Suc-Ala-Ala-Pro-Val-p-nitroanilide as elastase substrate preincubated for 5 mins followed by fMLP/CB-induction; assay type: functional, cell-based; details: Neutrophil
IC50 values for the compounds below.
Write the number in nM without appending the unit.

COMPOUND STRING	UNIT	IC50
COc1c(Cc2ccc(O)cc2)c(O)c(Cc2ccc(O)cc2)c2c1-c1ccc(O)cc1CC2	nM	1800
COc1cc(O)cc(CCc2cccc(O)c2)c1-c1c(OC)cc(O)c2c1CCc1cc(O)ccc1-2	nM	600
COc1cc(O)c(-c2c(O)cc(OC)c3c2ccc2cc(O)ccc23)c2c1-c1ccc(O)cc1CC2	nM	600
COc1cc(O)cc(CCc2ccc(O)c(OC)c2)c1	nM	3200
COc1cc(CCc2cccc(O)c2)c(Cc2ccc(O)cc2)c(O)c1Cc1ccc(O)cc1	nM	1100

Next up:
**Query** Give the measured IC50 of COc1cc(O)c(Cc2ccc(O)cc2)c(CCc2cccc(O)c2)c1Cc1ccc(O)cc1 .
**Result** 700

###

assay: Antiinflammatory activity in human neutrophils assessed as inhibition of fMLP/CB-induced elastase release using MeO-Suc-Ala-Ala-Pro-Val-p-nitroanilide as elastase substrate preincubated for 5 mins followed by fMLP/CB-induction; format: functional, cell-based; conditions: Neutrophil
pIC50: −log10 of the molar value.
Hi, to clarify the labels: Yes covers pIC50 from 6 upward, No covers anything below 6.

The following compounds have reported results that may help.
> print(dat)
                                   compound  label.class
1            COc1c(O)cc2ccc3cc(O)ccc3c2c1OC           No
2                           CCOCc1ccc(O)cc1           No
3  COc1c(O)c(Cc2ccc(O)cc2)c2ccc3cc(O)ccc3c2c1OC           No
4    O=Cc1ccc(O)cc1 [4-HYDROXYBENZALDEHYDE]           No
5  COc1cc(O)c(-c2c(O)cc(OC)c3c2ccc2cc(O)ccc23)c2ccc3cc(O)ccc3c12          Yes

**Query** Determine whether this compound has pIC50 no lower than 6: COc1cc(O)cc2c1-c1cc(-c3c(O)cc(OC)c4c3CCc3cc(O)ccc3-4)c(O)cc1CC2
**Result** Yes

**Query** Determine whether this compound has pIC50 no lower than 6: COc1cc(O)cc(CCc2cccc(O)c2)c1Cc1ccc(O)cc1
**Result** No

**Query** Determine whether this compound has pIC50 no lower than 6: COc1cc(O)c(Cc2ccc(O)cc2)c(CCc2cccc(O)c2)c1
**Result** No
